- Tested on: BIKE;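 further: KINOMEscan kinase panel screen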
- Construct: gene BMP2K
- conditionDescription: concentration: 1 μM, replicates: in singlicate; n = 1
Output label 1 for %Inh not less than 20%; output label 0 otherwise.

# count of solved cases: 8
Cc1cccc(Nc2nc(N[C@H]3CCCC[C@H]3N)ncc2C(N)=O)c1.Cl :: label 1
O=C(O)C(F)(F)F.O=c1[nH]ccc2nc(N[C@@H]3CCNC3)nc(Nc3cc(Cl)cc(Cl)c3)c12 :: label 1
NCCC(NC(=O)c1cc(Br)c(-c2ccnc3[nH]ccc23)s1)c1ccccc1.O=C(O)C(F)(F)F.O=C(O)C(F)(F)F (centres unmarked) :: label 1
COc1cccc(CC(=O)N2CCc3cc(-c4cn(C)c5ncnc(N)c45)ccc32)c1 :: label 1
CN(C)CCOc1ccc(-c2cc(-c3ccc(Cl)c(O)c3)c(-c3ccncc3)[nH]2)cc1.Cl.Cl :: label 0
CC(=O)Nc1cn2nc(Oc3cccc(NC(=O)c4cccc(C(F)(F)F)c4)c3)ccc2n1 :: label 0
COc1cccc(C2=C(Nc3cccc(O)c3)C(=O)NC2=O)c1 :: label 0
Cn1cc(-c2ccc3c(c2)CCN3C(=O)Cc2cc(F)cc(C(F)(F)F)c2)c2c(N)ncnc21 :: label 1

Shifting focus to the compound that follows.
Request: Is the recorded value of %Inh equal to or greater than 20% for this compound? Nc1ncnc2scc(-c3ccc(NC(=O)Cc4cc(F)ccc4F)cc3)c12.O=C(O)C(F)(F)F
Response: label 0
